- Method description: Toxicity liver stage against HepG2, at 10uM
- Format: cell-based
- Design: test concentration 10 uM, cell line HepG2-A16-CD81EGFP
- Test context: human, HepG2-A16-CD81EGFP cells; read-out: INHIBITION
Quantity name: cytotoxicity at 10 µM (%)

compound="COc1ccc(C)cc1C(=O)NC(CC(=O)O)c1cccs1 (stereo not drawn)" endpoint_value=-16.3
compound=Cn1cnnc1CCNC(=O)c1cnn(Cc2ccccc2)c1 endpoint_value=-0.722
compound="CC(O)CCN(C)C(=O)Nc1ccc(Br)cc1 (stereo not drawn)" endpoint_value=-2.1
compound=COc1c(F)cccc1C(=O)N(C)Cc1nc(-c2ccccn2)no1 endpoint_value=-1.51
compound=CCCN(CCO)C(=O)c1cc(COc2ccc3c(c2)CCCC3)on1 endpoint_value=-159
compound="CCc1ocnc1C(=O)N1CCCC(n2nc(C)nc2C)C1 (stereo not drawn)" endpoint_value=-11.5
compound=CC(=O)NCC(=O)N1CCc2nc(-c3ccccc3)nc(C)c2CC1 endpoint_value=-2.54
compound=CO[C@@H]1CN(c2ccccc2)S(=O)(=O)[C@@]12CCN(C(C)=O)C2 endpoint_value=6.07
compound="Cc1cnn(C2CCCN(C(=O)COc3ccc(C(N)=O)cc3)C2)c1 (stereo not drawn)" endpoint_value=-0.0295
compound=CN1C[C@H]2CC[C@@H](CC1=O)N2C(=O)c1ccc(-c2ccccc2)[nH]c1=O endpoint_value=5.91
compound=Cn1nc(CNC(=O)NCc2ccc(Cl)cc2)c2c1CCOC2 endpoint_value=2.81
compound=Cc1nc(C)c(CC(=O)NCc2cccnc2OC2CCCC2)c(=O)[nH]1 endpoint_value=-5.87
compound=Cc1cc(CNC(=O)Nc2cccc(COCCOC(C)C)c2)no1 endpoint_value=11
compound=Cc1cc(CN2CCC3(CC2)C(=O)NCCN3CC2CC2)oc1C endpoint_value=-67.5
compound=CC(C)(O)CCc1ccc(C(=O)N2CCN(CCS(C)(=O)=O)CC2)cc1 endpoint_value=-0.686
compound="Cn1cc(-c2ccc(C3CCCCN3Cc3cccnc3)cn2)cn1 (stereo not drawn)" endpoint_value=11.6
compound=O=C(NCc1ccc2c(c1)OCCO2)N1CCC(CO)CC1 endpoint_value=-4.62
compound="N#Cc1ccccc1OCCN1CCCC1Cn1cccn1 (stereo not drawn)" endpoint_value=-9.14
compound=CCN1CCN(C2CCN(Cc3noc(C)n3)CC2)C1=O endpoint_value=-8.13
compound=c1csc(-c2nc(CNCCn3cccn3)cs2)c1 endpoint_value=-7.36
compound="Cn1ncc2c1CCCC2NCc1cc(Br)cs1 (stereo not drawn)" endpoint_value=-0.481
compound="COC1CCN(S(=O)(=O)N2CCCC(c3cccc(C(=O)O)c3)C2)CC1 (stereo not drawn)" endpoint_value=1.83
compound="COCCN1CCCC(O)(CN2CCN(Cc3ccncc3)CC2)C1=O (stereo not drawn)" endpoint_value=-8.24
compound="Cc1ccc(C(=O)NCCC2CN(c3cnn(C)c(=O)c3)CCO2)s1 (stereo not drawn)" endpoint_value=-1.38
compound=Cc1nc[nH]c1CN1CCCC12CCN(c1ccccn1)CC2 endpoint_value=4.55
compound="CC(CCc1ccccc1)NC(=O)CNCCCN(C)C (stereo not drawn)" endpoint_value=-3.83
compound=CN1CC[C@@H]2[C@@H]1CCN2Cc1ccc2c(c1)OCO2 endpoint_value=3.11
compound=CN(CC(=O)NS(=O)(=O)c1ccc(F)cc1)Cc1ccccc1 endpoint_value=14.3
compound="CC(Cc1cccs1)C(=O)NCc1cccc(N2CCCC2=O)c1 (stereo not drawn)" endpoint_value=2.4
compound=COc1ccc2cnn(CC(=O)NC3CCCC3)c(=O)c2c1OC endpoint_value=-2.86
compound=Cc1ccc(CCNc2nc(-c3ccncc3)nc3c2CCNCC3)o1 endpoint_value=-132
compound="Cc1noc(C)c1-c1nc(C2CCCNC2)ccc1CO (stereo not drawn)" endpoint_value=-21.3
compound="CCOCC1CN(C(=O)Cc2ccccn2)Cc2cn(C)nc21 (stereo not drawn)" endpoint_value=1.86
compound=O=C(CN1C=Nc2ccccc2S1(=O)=O)NCCc1cccs1 endpoint_value=-8.55
compound="Cc1cc(C(=O)N2CCCC(c3cc(=O)nc4n3CCC4)C2)on1 (stereo not drawn)" endpoint_value=-1.28
compound=OCCn1nccc1C1CCN(CCOc2ccccc2Cl)CC1 endpoint_value=-5.04
compound=CC(C)(C)c1ncc(C(=O)NCCNC(=O)c2ccccc2)s1 endpoint_value=-8.08
compound=CNC(=O)c1cccnc1NCc1ccc(Cn2cccn2)cc1 endpoint_value=17.9
compound=CCc1cc(N2CCC(NCc3ccc(C)o3)CC2)ncn1 endpoint_value=2.84
compound=CCN(C1CCN(C(=O)c2cccc(Cl)c2)CC1)S(C)(=O)=O endpoint_value=0.209
compound=COCCN(C(=O)c1cnccn1)c1nc2c(s1)CCc1c-2cnn1C endpoint_value=-24.3
compound="O=C(COC1CCOC1)N(CC(F)F)c1cccc(Cl)c1 (stereo not drawn)" endpoint_value=3.44
compound=O=C(O)c1ccc(CNC(=O)C2CCN(C(=O)C3CCC3)CC2)s1 endpoint_value=0.993
compound=COCc1noc(CCNc2nc(CC3CC3)nc3c2CCNCC3)n1 endpoint_value=-4.1
compound="CCC(CO)N(Cc1ccccn1)C(=O)c1ccc(F)c(F)c1 (stereo not drawn)" endpoint_value=-0.273
compound=COCCNC(=O)N1CCC(NC(C)C)CC1 endpoint_value=7.96
compound="O=C(Nc1ccc2ncccc2c1)C1CC(=O)N(Cc2ccccn2)C1 (stereo not drawn)" endpoint_value=3.31
compound=CN1CCN(C(=O)c2cc[nH]c(=O)c2)Cc2ccccc21 endpoint_value=-18.1

----------
- Method description: Toxicity liver stage against HepG2, at 10uM
- Format: cell-based
- Set-up: test concentration 10 uM, cell line HepG2-A16-CD81EGFP
- Test context: human, HepG2-A16-CD81EGFP cells; read-out: INHIBITION
Quantity name: cytotoxicity at 10 µM (%)

compound=O=C(C1CCCC1)N1CCO[C@H]2[C@H](OCC3CCOCC3)CC[C@@H]21 endpoint_value=5.05
compound=CCn1cncc1Cn1ncc2ccccc2c1=O endpoint_value=3.7
compound="O=C(O)c1cccnc1N1CCN(Cc2ccc(F)cc2)C(CCO)C1 (centres undefined)" endpoint_value=12.3
compound="Nc1ccnc(N2CCCC(CO)(Cc3cccc(Cl)c3)C2)n1 (centres undefined)" endpoint_value=0.528
compound="Cc1cc(N(C)C)nc(C2CCCN2)n1 (centres undefined)" endpoint_value=-11.1
compound="CSc1ncc(CNC(C)c2cnn(-c3ccccc3)c2C)cn1 (centres undefined)" endpoint_value=-3.63
compound="COc1cccc(Cl)c1C(C(=O)O)N1CCC(O)(c2cccnc2)CC1 (centres undefined)" endpoint_value=6.03
compound=COc1cc2nc(C)n(CC(=O)NCCCO)c(=O)c2cc1OC endpoint_value=-0.869
compound=CC(=O)Nc1nc(C(=O)NCc2ccc(N3CCCCCC3)nc2)cs1 endpoint_value=4.74
compound=COc1ccc(CCN(C)C(=O)c2cc(C(C)=O)c[nH]2)cc1OC endpoint_value=5.38
compound="Cc1noc(C)c1CNCC1CCN(CC(O)c2ccccc2)CC1 (centres undefined)" endpoint_value=-0.65
compound=Cc1cc(C)c2c(N3CCN(Cc4ncccc4C)CC3)ncnc2n1 endpoint_value=1.92
compound="CNC(=O)C1(c2cnccn2)CCCN1C(=O)c1ccccc1OC (centres undefined)" endpoint_value=3.1
compound="CC(C)c1nc(CN(C)C2CCN(CCNS(C)(=O)=O)C2)no1 (centres undefined)" endpoint_value=-8.48
compound=O=C1CO[C@H]2CN(Cc3c[nH]c4ccccc34)C[C@H]2N1 endpoint_value=1.61
compound="CC(Cn1cncn1)NC(=O)c1cn(Cc2ccccc2F)nn1 (centres undefined)" endpoint_value=-1.62
compound="O=C(CCc1cccnc1)N(Cc1ccsc1)CC1CCCO1 (centres undefined)" endpoint_value=-11.5
compound=NC(=O)CSCC(=O)NC1(c2cccc(Br)c2)CC1 endpoint_value=-13.9
compound=Cc1ccc(CNCCCNS(C)(=O)=O)c(Br)c1 endpoint_value=3.36
compound=CCOCc1nn(CC2CC2)c2c1CN(Cc1cccs1)CC2 endpoint_value=-108
compound=COc1cccc(S(=O)(=O)N2C[C@@H](O)[C@H](N(C)C)C2)c1 endpoint_value=5.76
compound=CC(C)(C)OC(=O)N1CC(CC(=O)NCc2ccnc(C3CC3)c2)C1 endpoint_value=5.54
compound="CC(C)(C)OC(=O)N1CC(=O)N(Cc2ccco2)CC(O)C1 (centres undefined)" endpoint_value=4.11
compound="Cc1oncc1C(=O)N1CCC(O)(CN2CCOCC2)C(C)(C)C1 (centres undefined)" endpoint_value=-5.26

----------
- Method description: Toxicity liver stage against HepG2, at 10uM
- Format: cell-based
- Parameters: test concentration 10 uM, cell line HepG2-A16-CD81EGFP
- Test context: human, HepG2-A16-CD81EGFP cells; read-out: INHIBITION
Listing of entries alongside the reported cytotoxicity at 10 µM.
Quantity name: cytotoxicity at 10 µM (%)

compound="CCC(CO)N(Cc1ccccn1)C(=O)c1ccc(=O)[nH]c1 (stereo unspecified)" endpoint_value=-0.65
compound=COc1ccc(CN(C)C(=O)CCc2c(C)nc(C)[nH]c2=O)cc1OC endpoint_value=-11.2
compound=O=C(N1CCCC1)N1CCC2(CC1)C(=O)N(CC1CC1)c1ccccc12 endpoint_value=7.15
compound=CN(C)c1cc2c(nn1)CCN(C(=O)c1ccc(-n3cccn3)nc1)C2 endpoint_value=-1.86
compound="CC1CN(Cc2ccccn2)CCN1c1ccc2nncn2n1 (stereo unspecified)" endpoint_value=-1.07
compound=Cc1ccccc1CC(=O)NCCNc1nccc(C(F)(F)F)n1 endpoint_value=7.64
compound="CCS(=O)(=O)N1Cc2nccn2CC(CN2CCCC2)C1 (stereo unspecified)" endpoint_value=-124
compound=CN(C)CCOCc1nnc2n1CCN(Cc1cccs1)CC2 endpoint_value=9.03
compound="CS(=O)(=O)c1cccc(OCC(=O)N2CCCC2c2ccc[nH]2)c1 (stereo unspecified)" endpoint_value=3.92
compound="CCn1ccnc1CN1CCN(c2cc(C)nc(C3CCCN3)c2)CC1 (stereo unspecified)" endpoint_value=2.19
compound="CC(COc1ccccc1F)NC(=O)N[C@@H]1C=C[C@H](CO)C1 (stereo partly specified)" endpoint_value=3.53

This collection of values is drawn from ChEMBL document CHEMBL4513216.
